Test system: U251 human glioblastoma cell line
Protocol Description: in vitro FM-HCR assay of MGMT activity (mPlum O^6MeG reporter plasmid)
Assay type: cell-based
Assay Context: 0.1% DMSO; U251 cells; flow cytometry 24 h after transfection; damaged/undamaged reporter; inversely related to MGMT activity
Experimental Readout: Reporter expression (%) mean, DMSO
Respond with the bare value in %.

Quick one: Reporter expression (%) mean, DMSO for P140H: MGMT polypeptide with mutation P140H (protein) MDKDCEMKRTTLDSPLGKLELSGCEQGLHEIKLLGKGTSAADAVEVPAPAAVLGGPEPLMQCTAWLNAYFHQPEAIEEFPVPALHHPVFQQESFTRQVLWKLLKVVKFGEVISYQQLAALAGNPKAARAVGGAMRGNPVHILIPCHRVVCSSGAVGNYSGGLAVKEWLLAHEGHRLGKPGLGGSSGLAGAWLKGAGATSGSPPAGRN ? 15.7

P140I: MGMT polypeptide with mutation P140I (protein) MDKDCEMKRTTLDSPLGKLELSGCEQGLHEIKLLGKGTSAADAVEVPAPAAVLGGPEPLMQCTAWLNAYFHQPEAIEEFPVPALHHPVFQQESFTRQVLWKLLKVVKFGEVISYQQLAALAGNPKAARAVGGAMRGNPVIILIPCHRVVCSSGAVGNYSGGLAVKEWLLAHEGHRLGKPGLGGSSGLAGAWLKGAGATSGSPPAGRN , same question. 14.7

A170S: MGMT polypeptide with mutation A170S (protein) MDKDCEMKRTTLDSPLGKLELSGCEQGLHEIKLLGKGTSAADAVEVPAPAAVLGGPEPLMQCTAWLNAYFHQPEAIEEFPVPALHHPVFQQESFTRQVLWKLLKVVKFGEVISYQQLAALAGNPKAARAVGGAMRGNPVPILIPCHRVVCSSGAVGNYSGGLAVKEWLLSHEGHRLGKPGLGGSSGLAGAWLKGAGATSGSPPAGRN , same question. 15.8
